Hello, the source for this data is PubChem BioAssay, in case you need it.

molecules and their reported inhibition
# systemName: L-lactate dehydrogenase (Plasmodium falciparum (isolate CDC / Honduras))
# measurementDescription: PfLDH activity inhibition – cell lysate, 3D7 strain, counter-screen for P. falciparum growth inhibition project (AID 2304);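 further: 0% = vehicle and 100% = reference inhibitor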
# conditionLabel: P. falciparum 3D7 crude extract, LDH APAD/NBT absorbance; at 2 µM; active compounds read high
Activity calls are given as the source filed them. How the calls were made is not given here.
reportedProperty: inhibition

# smilesData, experimentalResult
rows = [
    ("Cc1nc(N)nc(N)c1OCCCOc1ccccc1Br", "-3% (inactive)"),
    ("Oc1ccc(-c2ccccc2)cc1CN1CCCCC1", "-1% (inactive)"),
    ("N#Cc1ccc(-c2ccc(C(=O)NCCCCN3CCC(c4cn(CCCO)c5ccccc45)CC3)cc2)cc1", "-2% (inactive)"),
    ("CN(C)CCOc1ccc(N2CCN(CCCCNC(=O)c3ccc(/C=C/c4cc(Cl)cc(Cl)c4)cc3)CC2)cc1", "1% (inactive)"),
    ("c1cc(Cc2ccc(Nc3c4ccccc4nc4ccccc34)cc2)cc(Nc2c3ccccc3nc3ccccc23)c1", "-5% (inactive)"),
    ("CCCNCc1ccc(-c2ccc(CNC3Cc4ccccc4C3)cc2)nc1", "1% (inactive)"),
    ("Cc1cc(NN=Cc2cccc(F)c2)c2cccc(C)c2n1", "5% (inactive)"),
    ("COc1cc(C)nc2ccc(NC(=O)Nc3ccccc3[N+](=O)[O-])cc12", "-1% (inactive)"),
    ("Oc1ccc2nc(NCCCc3ccccc3)nc(NCCc3ccccc3)c2c1", "-3% (inactive)"),
    ("Cc1cc(CN2CCC(C(=O)Nc3ccc(-c4nc5ccccc5[nH]4)cc3)CC2)oc1C", "-4% (inactive)"),
]
